IC50 values by entry
# Tested on: Echinochloa crus-galli
# test_details: Phytogrowth-inhibitory activity against Echinochloa crusgalli assessed as inhibition of seedling growth
# Assay type: functional, organism-based
Reply numerically in µM, unit not repeated.

INSERT INTO measurements (compound, test_value) VALUES
  ('COC(=O)c1c(C)cc(O)c(C=O)c1O [METHYL HAEMATOMMATE]', 29),
  ('Cc1cc(OC(=O)c2c(C)cc(OC(=O)c3c(C)cc(O)cc3O)cc2O)cc(O)c1C(=O)O', 2000),
  ('Cc1cc(O)cc(O)c1', 1100);

Ask: Find IC50 (Echinochloa crus-galli) for the entry Cc1cc(O)cc(OC(=O)c2c(C)cc(O)cc2O)c1
Reply: 180

Ask: How about COC(=O)c1c(C)cc(O)cc1O [METHYL ORSELLINATE] ?
Reply: 310

Ask: How about COC(=O)c1c(C)cc(O)c(C)c1O ?
Reply: 610
